Measured values drawn from PubChem BioAssay (EPA / NIEHS) for this set.

read-out: Secreted IgG (sIgG), gene 3500; experiment: BSK_BT_sIgG: BioMAP Diversity Plus: BT Assay for Secreted IgG (sIgG) Biomarker Activity (AID 2284226); conditions: primary human B cells with PBMC
Activity calls are given as the source filed them. The calls were made as follows: active = hit-call score of the fitted dose curve at least 0.9, where 1 is the maximum; inactive = score below 0.9.

{"columns": ["smiles", "AC50"],
 "data": [
  ["FC(F)(F)C(F)(F)C(F)(F)CI", "inactive"],
  ["O=S(=O)(OCCOC(F)(F)F)C(F)(F)F", "inactive"],
  ["CC(C)(C)C(=O)CC(=O)C(F)(F)C(F)(F)C(F)(F)F", "inactive"],
  ["FC(F)(Br)C(F)(F)C(F)(F)C(F)(F)C(F)(F)C(F)(F)Br", "inactive"],
  ["O=S(=O)(O)C(F)(F)C(F)(F)C(F)(F)C(F)(F)C(F)(F)C(F)(F)C(F)(F)F", "inactive"],
  ["CCc1ccc(C(c2ccc(CC)cc2)C(Cl)Cl)cc1", "14.7 µM (active)"],
  ["CCCCCCCOC(=O)c1ccccc1C(=O)OCCCCCCC", "13.3 µM (active)"],
  ["O=C(O)C(F)(F)C(F)(F)C(F)(F)C(F)(F)F", "inactive"],
  ["CCc1c(Br)c(Br)c(Br)c(Br)c1Br", "inactive"],
  ["O=C(O)C(F)(F)C(F)(F)C(F)(F)F", "inactive"],
  ["CS(C)(=O)=O", "inactive"],
  ["CCCCCCCCCCCCCCCC[N+](C)(C)Cc1ccccc1", "0.274 µM (active)"],
  ["OCCCC(F)(F)C(F)(F)C(F)(F)F", "inactive"],
  ["FC(F)(F)C(F)(F)CNCC(F)(F)C(F)(F)F", "inactive"],
  ["Nc1ccc([N+](=O)[O-])cc1O", "inactive"]
]}
